Field: log P. Provide a value for each of the molecules that follow.
type: physicochemical; conditions: method [a]: HPLC/LC-MS on reversed phase at pH 2.7, 0.1% formic acid in water / acetonitrile, gradient 10% to 95% acetonitrile

Lookup: log P for CCC#Cc1cnc2ccc(C3=NOC(C)(C(=O)NCc4cn(CC)nc4C)C3)cc2c1 (racemic) ?
Found: 2.75[a]

Lookup: For the molecule CCn1cc(CNC(=O)C2(C)CC(c3ccc4ncc(C(F)(F)F)cc4c3)=NO2)c(C)n1 (racemic) , what log P is on record?
Found: 2.45[a]

Lookup: What does the record list as log P for C#Cc1cnc2ccc(C3=NOC(OC)(C(=O)NCc4c(C)cnn4CCC)C3)cc2c1 (stereo not shown) ?
Found: 2.33[a]

Lookup: May I ask what log P has been recorded for C#Cc1cnc2ccc(C3=NOC(C)(C(=O)NCc4cnn(CC)c4CC)C3)cc2c1 (stereo not shown) ?
Found: 2.37[a]

Lookup: Entry C#Cc1cnc2ccc(C3=NOC(OC)(C(=O)N(OC)C(C)C)C3)cc2c1 (stereo not shown) has what log P?
Found: 2.96[a]

Lookup: Tell me the measured log P of C#Cc1cnc2ccc(C3=NOC(C)(C(=O)NC(C)(C)C#CCOC)C3)cc2c1 (stereo not shown) , please.
Found: 2.82[a]

Lookup: State the recorded log P for this entry: C#Cc1cnc2ccc(C3=NOC(CC)(C(=O)NCc4cn(CCC)nc4C)C3)cc2c1 (racemic)
Found: 2.64[a]

Lookup: Please give the measured log P for this molecule: C#Cc1cnc2ccc(C3=NOC(C)(C(=O)NC4=NCCO4)C3)cc2c1 (stereo not shown)
Found: 1.52[a]

Lookup: What value of log P has been reported for the following molecule? CCn1cc(CNC(=O)C2(CC3CC3)CC(c3ccc4ncc(Br)cc4c3)=NO2)c(C)n1 (racemic)
Found: 3.01[a]

Lookup: Looking for the measured log P of C#Cc1cc2cc(C3=NOC(C)(C(=O)NCc4cn(CC)nc4C)C3)ccc2nc1Cl (stereo not shown) , can you help?
Found: 2.59[a]

Lookup: Which log P value belongs to CC(C)NC(=O)C1(C[Si](C)(C)C)CC(c2ccc3ncc(Br)cc3c2)=NO1 (stereo not shown) ?
Found: 4.66[a]

Lookup: GET /values?readout=log P&item= CCn1cc(CNC(=O)C2(CC(=O)OC)CC(c3ccc4ncc(Br)cc4c3)=NO2)c(C)n1 (racemic)
Found: 2.31[a]

Lookup: Quick one: log P for CC(C)NC(=O)C1(C)CC(c2ccc3ncc(-c4ccco4)cc3c2)=NO1 (racemic) ?
Found: 2.77[a]

Lookup: Any idea what its log P is? The molecule is COC1(C(=O)N(C)C)CC(c2ccc3ncc(Br)cc3c2)=NO1 (stereo not shown)
Found: 2.51[a]

Lookup: Given the molecule CC1(C(=O)NCc2ccsc2)CC(c2ccc3ncc(Br)cc3c2)=NO1 (stereo not shown) , what is its reported log P?
Found: 3.07[a]

Lookup: I am curious: what log P value has been reported for CC1(C(=O)NC2CCC2)CC(c2ccc3ncc(I)cc3c2)=NO1 (racemic) ?
Found: 3.06[a]

Where do the numbers come from? From patent US9510598B2.
